Examples of variants with documented 8OG:A repair function score follow.
B1: library; numbered along this chain (parent)
chain: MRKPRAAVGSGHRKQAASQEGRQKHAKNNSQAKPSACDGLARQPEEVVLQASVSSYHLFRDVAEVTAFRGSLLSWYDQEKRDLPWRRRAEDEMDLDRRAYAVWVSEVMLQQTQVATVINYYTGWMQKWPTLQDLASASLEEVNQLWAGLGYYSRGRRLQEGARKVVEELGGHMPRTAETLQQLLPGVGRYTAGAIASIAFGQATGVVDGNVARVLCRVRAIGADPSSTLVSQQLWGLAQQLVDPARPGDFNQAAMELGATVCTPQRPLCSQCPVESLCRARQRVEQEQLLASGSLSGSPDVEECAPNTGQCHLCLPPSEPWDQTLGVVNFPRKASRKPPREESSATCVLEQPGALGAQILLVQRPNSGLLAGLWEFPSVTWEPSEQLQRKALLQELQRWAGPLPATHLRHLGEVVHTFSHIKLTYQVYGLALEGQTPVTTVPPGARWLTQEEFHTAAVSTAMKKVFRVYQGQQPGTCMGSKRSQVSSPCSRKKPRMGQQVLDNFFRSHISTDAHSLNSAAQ

Variants of: B1
Assay: 8OG:A repair function score (normalized; synonymous = 0, nonsense = -1) (normalized log-likelihood score); higher = more repair activity (WT-like);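 further: cells sorted at 72 h after reporter transfection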
Conditions: with 8OG:A DNA repair reporter (GFP) in HEK-293 MUTYH KO cells
resultType: 8OG:A repair function score

> print(dat)
    residuechange                   resulttype    value
 1          L360E  8OG:A repair function score    -1.15
 2          G444Y  8OG:A repair function score   -0.204
 3          V218Y  8OG:A repair function score    -0.62
 4          S318Y  8OG:A repair function score  -0.0582
 5          T424V  8OG:A repair function score    -0.09
 6          E167W  8OG:A repair function score  -0.0936
 7           P84R  8OG:A repair function score    -1.06
 8          E350I  8OG:A repair function score   -0.103
 9           E45V  8OG:A repair function score   -0.122
10          T179E  8OG:A repair function score  -0.0168
11          I195R  8OG:A repair function score    -1.02
